For each entry below, report its log10 of IC50 value.
Note: values are log10 of IC50 expressed in nM.

Notebook entry, untagged, full-length human PTPN2 (TC45) (1-387) protein (Homo sapiens (Human)) assay: log10 of IC50 of O=C1CN(c2c(O)cc3c(c2F)CCNCC3)S(=O)(=O)N1 = ?
0.36

Notebook entry, untagged, full-length human PTPN2 (TC45) (1-387) protein (Homo sapiens (Human)) assay: log10 of IC50 of CC(C)CCN[C@H]1CCCc2cc(O)c(N3CC(=O)NS3(=O)=O)c(F)c2C1 (single isomer, unassigned) = ?
1.30

Notebook entry, untagged, full-length human PTPN2 (TC45) (1-387) protein (Homo sapiens (Human)) assay: log10 of IC50 of NCC[C@H]1CCc2cc(O)c(N3CC(=O)NS3(=O)=O)c(F)c2CC1 (single isomer, unassigned) = ?
2.25

Notebook entry, untagged, full-length human PTPN2 (TC45) (1-387) protein (Homo sapiens (Human)) assay: log10 of IC50 of CC(C)CCNC1CCc2cc(O)c(N3CC(=O)NS3(=O)=O)c(F)c2CC1 (stereo not drawn) = ?
1.39

Notebook entry, untagged, full-length human PTPN2 (TC45) (1-387) protein (Homo sapiens (Human)) assay: log10 of IC50 of CN(C)CCC1CCc2cc(O)c(N3CC(=O)NS3(=O)=O)c(F)c2CC1 (stereo not drawn) = ?
1.32

Notebook entry, untagged, full-length human PTPN2 (TC45) (1-387) protein (Homo sapiens (Human)) assay: log10 of IC50 of O=C1CN(c2c(O)cc3c(c2F)CC[C@H](N2CCCC2)CC3)S(=O)(=O)N1 (single isomer, unassigned) = ?
1.90

Notebook entry, untagged, full-length human PTPN2 (TC45) (1-387) protein (Homo sapiens (Human)) assay: log10 of IC50 of CCNC1CCc2cc(O)c(N3CC(=O)NS3(=O)=O)c(F)c2CC1 (stereo not drawn) = ?
1.24

Notebook entry, untagged, full-length human PTPN2 (TC45) (1-387) protein (Homo sapiens (Human)) assay: log10 of IC50 of CN(C)[C@@H]1CCc2cc(O)c(N3CC(=O)NS3(=O)=O)c(F)c2CC1 (single isomer, unassigned) = ?
1.09

Notebook entry, untagged, full-length human PTPN2 (TC45) (1-387) protein (Homo sapiens (Human)) assay: log10 of IC50 of CNC[C@@H]1CCc2cc(O)c(N3CC(=O)NS3(=O)=O)c(F)c2CC1 (single isomer, unassigned) = ?
1.88

Notebook entry, untagged, full-length human PTPN2 (TC45) (1-387) protein (Homo sapiens (Human)) assay: log10 of IC50 of CC(C)CCCN1CCc2cc(O)c(N3CC(=O)NS3(=O)=O)c(F)c2CC1 = ?
0.03

Notebook entry, untagged, full-length human PTPN2 (TC45) (1-387) protein (Homo sapiens (Human)) assay: log10 of IC50 of CC(C)CCNC1CCCc2cc(O)c(N3CC(=O)NS3(=O)=O)c(F)c2C1 (stereo not drawn) = ?
1.41

Notebook entry, untagged, full-length human PTPN2 (TC45) (1-387) protein (Homo sapiens (Human)) assay: log10 of IC50 of O=C1CN(c2c(O)cc3c(c2F)CC[C@H](N2CCC4(CCC4)C2)CC3)S(=O)(=O)N1 (single isomer, unassigned) = ?
1.97

Notebook entry, untagged, full-length human PTPN2 (TC45) (1-387) protein (Homo sapiens (Human)) assay: log10 of IC50 of O=C1CN(c2c(O)cc3c(c2F)CC[C@@H](N2CCCC2)CC3)S(=O)(=O)N1 (single isomer, unassigned) = ?
1.13

Notebook entry, untagged, full-length human PTPN2 (TC45) (1-387) protein (Homo sapiens (Human)) assay: log10 of IC50 of O=C1CN(c2c(O)cc3c(c2F)CC[C@@H](N2CCC4(CCC4)C2)CC3)S(=O)(=O)N1 (single isomer, unassigned) = ?
1.03

Notebook entry, untagged, full-length human PTPN2 (TC45) (1-387) protein (Homo sapiens (Human)) assay: log10 of IC50 of O=C1CN(c2c(O)cc3c(c2F)CCC(NC2CCCC2)CC3)S(=O)(=O)N1 (stereo not drawn) = ?
1.30

---

For each entry below, report its pIC50 value.
Tested on: murine B16F10 melanoma cell line
Assay: B16F10 IFNγ-induced cellular growth inhibition assay (xCELLigence RTCA)
Type: cell-based
Conditions: Mus musculus, B16-F10, 48 h; read-out: B16 IFNγ Mediated Growth Inhibition Assay: AVG IC50
Description: Example B: B16F10 Cellular Growth Inhibition Assay Compound activity was determined using an interferon gamma (IFNγ)-induced cellular growth inhibition assay with the murine B16F10 melanoma cell line on an Agilent xCELLigence Real-Time Cell Analysis platform (RTCA). […] Cells were incubated at room temperature for 20 min to allow cells to settle before placing them in the xCELLigence reader and incubating overnight at 37° C., sweeping wells every 15 minutes. […]
Note on units: pIC50 is unitless, being -log10 of a concentration expressed in mol/L.

Notebook entry, murine B16F10 melanoma cell line assay: pIC50 of CCN[C@@H]1CCc2cc(O)c(N3CC(=O)NS3(=O)=O)c(F)c2CC1 (single isomer, unassigned) [Example 21] = ?
4.27

Notebook entry, murine B16F10 melanoma cell line assay: pIC50 of N#CCC1CCc2cc(O)c(N3CC(=O)NS3(=O)=O)c(F)c2CC1 (stereo not shown) [Example 32] = ?
4.83

Notebook entry, murine B16F10 melanoma cell line assay: pIC50 of N[C@H]1CCc2cc(O)c(N3CC(=O)NS3(=O)=O)c(F)c2CC1 (single isomer, unassigned) [Example 6] = ?
5.79

Notebook entry, murine B16F10 melanoma cell line assay: pIC50 of O=C1CN(c2c(O)cc3c(c2F)CC[C@H](N2CCCC2)CC3)S(=O)(=O)N1 (single isomer, unassigned) [Example 15] = ?
4.77

Notebook entry, murine B16F10 melanoma cell line assay: pIC50 of CNC[C@H]1CCc2cc(O)c(N3CC(=O)NS3(=O)=O)c(F)c2CC1 (single isomer, unassigned) [Example 23] = ?
5.67

---

Test system: murine B16F10 melanoma cell line
Assay: B16F10 IFNγ-induced cellular growth inhibition assay (xCELLigence RTCA)
Assay type: cell-based
Conditions: Mus musculus, B16-F10, 48 h; read-out: B16 IFNγ Mediated Growth Inhibition Assay: AVG IC50
Procedure: Example B: B16F10 Cellular Growth Inhibition Assay Compound activity was determined using an interferon gamma (IFNγ)-induced cellular growth inhibition assay with the murine B16F10 melanoma cell line on an Agilent xCELLigence Real-Time Cell Analysis platform (RTCA). […] Cells were incubated at room temperature for 20 min to allow cells to settle before placing them in the xCELLigence reader and incubating overnight at 37° C., sweeping wells every 15 minutes. […]
attributeMeasured: IC50 (µM)
Please give a number only; it is taken to be in µM.

# IC50 lookup, item CC(C)CCCN1CCc2cc(O)c(N3CC(=O)NS3(=O)=O)c(F)c2CC1
1.73

# IC50 lookup, item CCNC1CCc2cc(O)c(N3CC(=O)NS3(=O)=O)c(F)c2CC1 (centres unmarked)
2.49

# IC50 lookup, item O=C1CN(c2c(O)cc3c(c2F)CC[C@H](N2CCC4(CCC4)C2)CC3)S(=O)(=O)N1 (single isomer, unassigned)
13.5

# IC50 lookup, item O=C1CN(c2c(O)cc3c(c2F)CCNCC3)S(=O)(=O)N1
0.996

# IC50 lookup, item O=C1CN(c2c(O)cc3c(c2F)CCC(O)CC3)S(=O)(=O)N1 (centres unmarked)
1.59

# IC50 lookup, item O=C1CN(c2c(O)cc3c(c2F)CCCCC3)S(=O)(=O)N1
13.6

# IC50 lookup, item CN(C)[C@@H]1CCc2cc(O)c(N3CC(=O)NS3(=O)=O)c(F)c2CC1 (single isomer, unassigned)
2.69

---

System: murine B16F10 melanoma cell line
Test: B16F10 IFNγ-induced cellular growth inhibition assay (xCELLigence RTCA)
Format: cell-based
Details: Mus musculus, B16-F10, 48 h; read-out: B16 IFNγ Mediated Growth Inhibition Assay: AVG IC50
For each entry below, report its pIC50 value.
Note on units: pIC50 is unitless, being -log10 of a concentration expressed in mol/L.

# pIC50 lookup, item CC(C)CCN[C@H]1CCCc2cc(O)c(N3CC(=O)NS3(=O)=O)c(F)c2C1 (single isomer, unassigned)
5.30

# pIC50 lookup, item O=C1CN(c2c(O)cc3c(c2F)CCC(N2CCCC2)CC3)S(=O)(=O)N1 (stereo not shown)
5.38

# pIC50 lookup, item O=C1CN(c2c(O)cc3c(c2F)CC[C@@H](N2CCCC2)CC3)S(=O)(=O)N1 (single isomer, unassigned)
4.82

# pIC50 lookup, item CC(C)CCNC1CCCc2cc(O)c(N3CC(=O)NS3(=O)=O)c(F)c2C1 (stereo not shown)
5.15

# pIC50 lookup, item O=C1CN(c2c(O)cc3c(c2F)CCC(NC2CCCC2)CC3)S(=O)(=O)N1 (stereo not shown)
5.39

# pIC50 lookup, item O=C1CN(c2c(O)cc3c(c2F)CC[C@@H](N2CCC4(CCC4)C2)CC3)S(=O)(=O)N1 (single isomer, unassigned)
5.18

# pIC50 lookup, item CCN[C@H]1CCc2cc(O)c(N3CC(=O)NS3(=O)=O)c(F)c2CC1 (single isomer, unassigned)
5.38

# pIC50 lookup, item CN(C)C1CCc2cc(O)c(N3CC(=O)NS3(=O)=O)c(F)c2CC1 (stereo not shown)
5.54

# pIC50 lookup, item CNC1CCc2cc(O)c(N3CC(=O)NS3(=O)=O)c(F)c2CC1 (stereo not shown)
5.29

# pIC50 lookup, item O=C1CN(c2c(O)cc3c(c2F)CC[C@@H](NCCC2CCCC2)CC3)S(=O)(=O)N1 (single isomer, unassigned)
5.18
